# Measured On: LgTrip 3546 (with His tag; SEQ ID NO: 51)
# Sequence (chain, as listed by the source): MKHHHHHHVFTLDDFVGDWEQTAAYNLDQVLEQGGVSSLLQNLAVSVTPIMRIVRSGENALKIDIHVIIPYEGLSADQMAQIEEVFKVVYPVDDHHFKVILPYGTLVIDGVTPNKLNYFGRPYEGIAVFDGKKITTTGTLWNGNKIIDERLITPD
# Experiment Summary: luminescence complementation
# Measurement Conditions: modification not given
Measured Property: log10(Kd) (log10 of the value in nM)
For clarity, the numbers are log10 values of Kd expressed in nM.

Binder | log10(Kd)
DKLLFKVTIGKYK [751] | 2.79
EKLLFTVTIGKWK [711] | 2.70
GKMLFRVWINSWK [615] | 2.54
GKMLFRVTIGNWK [669] | 2.58
EKMLFTVTIGKWK [710] | 3.11

Give one value of log10(Kd) per listed binder.
1. RQMLFRVTINSWK [652]
2. EKMLFRVTIGKWK [708]
3. EKLLFRVTIGKYK [726]
4. RLMLFRVTIGKWK [676]
5. EQMLFRVTINSWK [656]

1: 1.48; 2: 2.45; 3: 2.81; 4: 1.30; 5: 3.80
